- testMethodNotes: Stability of the compound in pH 7.5 PBS assessed as hydrolysis by measuring half life at 500 uM by LC-MS analysis
- Format: physicochemical
- assaySetup: PBS pH 7.5, pH 7.5

{"chemSmiles": "CNc1nc2ccc(N(Cc3ccnc(Cl)c3)S(=O)(=O)c3cccc(S(=O)(=O)F)c3)cc2c(=O)[nH]1", "u": "min", "half-life at 500 µM": 30}

* * *

- testMethodNotes: GSH reactivity in PBS buffer at pH 7.4 assessed as half life
- Type: ADME
Catalogue of half-life values

{"compound": "COc1cc(OC)cc(C(=O)C23CC2C3)c1 (centres undefined)", "u": "h", "limitQualifier": "=", "half-life": 32.7}
{"compound": "CC#CC1=Nc2ccccc2C(C)(C)O1", "u": "h", "limitQualifier": "=", "half-life": 1.37}
{"compound": "CC(=O)N(C)c1ccccc1", "u": "h", "limitQualifier": "=", "half-life": 0.333}
{"compound": "NC(=O)C(Br)Br", "u": "h", "limitQualifier": "<", "half-life": 1.67}
{"compound": "C#CCOCCOCCOc1cccc(N2CCN(C(=O)C(C)(F)Br)CC2)c1 (centres undefined)", "u": "h", "limitQualifier": ">", "half-life": 167}
{"compound": "NC(=O)C(F)Br (centres undefined)", "u": "h", "limitQualifier": "=", "half-life": 0.15}
{"compound": "C#CCOCCOCCOc1cccc(N2CCN(C(=O)CF)CC2)c1", "u": "h", "limitQualifier": ">", "half-life": 167}
{"compound": "CCCSc1nc2sc3c(c2c(=O)n1CC)CCc1ccccc1-3", "u": "h", "limitQualifier": "=", "half-life": 0.683}
{"compound": "NC(=O)C(Cl)Br (centres undefined)", "u": "h", "limitQualifier": "<", "half-life": 1.67}
{"compound": "O=S(=O)(c1ccccc1)C12CC1C2 (centres undefined)", "u": "h", "limitQualifier": "=", "half-life": 11.8}
{"compound": "NC(=O)C(F)Cl (centres undefined)", "u": "h", "limitQualifier": "=", "half-life": 17}
{"compound": "C#CCOCCOCCOc1cccc(N2CCN(C(=O)C(F)(F)Br)CC2)c1", "u": "h", "limitQualifier": "=", "half-life": 33.4}
{"compound": "NC(=O)CCl", "u": "h", "limitQualifier": "<", "half-life": 1.67}
{"compound": "C=CCSc1nc2sc3c(c2c(=O)n1CC)CCc1ccccc1-3", "u": "h", "limitQualifier": "=", "half-life": 0.683}

* * *

- testMethodNotes: GSH reactivity in PBS buffer at pH 8 at 14 degC assessed as half life upto 200 uM
- Format: ADME
Catalogue of half-life at up to 200 µM values

{"chemSmiles": "CNS(=O)(=O)OCC(=O)NCc1ccccc1", "half-life at up to 200 µM": "~5 h"}
{"chemSmiles": "O=C(COS(=O)(=O)NCc1ccccc1)NCc1ccccc1", "half-life at up to 200 µM": "~12 h"}

* * *

- testMethodNotes: Reactivity of SuTEx assessed as aryl-LG modifications by measuring half life by HLPC analysis
- Assay type: physicochemical
Catalogue of half-life values

{"chemSmiles": "COc1ccc(-c2ncn(S(=O)(=O)c3ccc(F)cc3)n2)cc1", "u": "min", "half-life": 14.2}
{"chemSmiles": "O=S(=O)(c1ccc(F)cc1)n1cnc(-c2ccc(Br)cc2)n1", "u": "min", "half-life": 6.6}
{"chemSmiles": "O=S(=O)(c1ccc(F)cc1)n1cnc(-c2ccc(C(F)(F)F)cc2)n1", "u": "min", "half-life": 3.2}
{"chemSmiles": "O=S(=O)(c1ccc(F)cc1)n1cnc(-c2ccccc2)n1", "u": "min", "half-life": 6.5}

Data origin: ChEMBL document CHEMBL5512664
